Target: EGFR L858R/C797S (Homo sapiens, UniProt P00533, C797S/L858R)
Sequence (P00533 25-1210 C797S/L858R): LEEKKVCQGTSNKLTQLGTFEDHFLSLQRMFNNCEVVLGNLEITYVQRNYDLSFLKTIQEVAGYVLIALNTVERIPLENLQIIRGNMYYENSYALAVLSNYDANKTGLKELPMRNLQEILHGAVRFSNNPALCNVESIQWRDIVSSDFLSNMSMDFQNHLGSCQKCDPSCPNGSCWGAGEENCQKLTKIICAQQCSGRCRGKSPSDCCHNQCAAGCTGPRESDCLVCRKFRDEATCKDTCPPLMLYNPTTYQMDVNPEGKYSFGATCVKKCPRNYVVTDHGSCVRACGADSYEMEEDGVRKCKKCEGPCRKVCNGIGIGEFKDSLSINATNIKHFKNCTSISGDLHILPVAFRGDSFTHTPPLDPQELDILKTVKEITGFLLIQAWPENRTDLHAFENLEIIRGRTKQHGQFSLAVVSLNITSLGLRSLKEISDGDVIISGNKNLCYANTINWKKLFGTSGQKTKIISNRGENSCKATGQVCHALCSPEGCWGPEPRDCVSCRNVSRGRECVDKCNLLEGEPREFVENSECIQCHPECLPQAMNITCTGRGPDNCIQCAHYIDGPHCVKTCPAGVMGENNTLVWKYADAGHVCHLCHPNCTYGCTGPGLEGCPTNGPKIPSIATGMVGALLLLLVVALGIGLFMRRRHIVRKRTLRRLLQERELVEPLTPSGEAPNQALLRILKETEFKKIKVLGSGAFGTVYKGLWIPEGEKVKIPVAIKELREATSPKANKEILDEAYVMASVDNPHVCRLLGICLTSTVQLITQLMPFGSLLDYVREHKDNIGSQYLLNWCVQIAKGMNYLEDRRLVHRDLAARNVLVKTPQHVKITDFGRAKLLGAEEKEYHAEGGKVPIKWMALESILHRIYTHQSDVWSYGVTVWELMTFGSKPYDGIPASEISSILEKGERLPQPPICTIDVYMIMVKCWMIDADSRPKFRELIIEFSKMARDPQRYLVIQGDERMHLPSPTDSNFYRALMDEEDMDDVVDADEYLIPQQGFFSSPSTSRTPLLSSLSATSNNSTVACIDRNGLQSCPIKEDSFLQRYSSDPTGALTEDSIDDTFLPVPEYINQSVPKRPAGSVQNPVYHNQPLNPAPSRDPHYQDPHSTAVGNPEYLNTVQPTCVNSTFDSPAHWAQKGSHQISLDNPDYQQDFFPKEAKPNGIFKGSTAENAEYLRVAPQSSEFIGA
Test: Biochemical EGFR kinase assay (Lance Ultra TR-FRET), double mutant L858R/C797S
Settings: IC50 L858R/C797S, 100 μM ATP
pIC50 by entry:
Scale note: pIC50 = -log10(concentration in M).

                                   compound                              study_system  number
0  C[C@]1(O)CC[C@@H](Nc2cc(Nc3ccnc(-c4cnn(S(=O)(=O)C5CC5)c4)n3)ncc2-c2ccc(C(F)(F)F)c(F)n2)CC1  EGFR L858R/C797S (Homo sapiens, UniProt P00533, C797S/L858R)    6.80
1  CC(C)(O)[C@H]1CC[C@@H](Nc2cc(Nc3ccnc(-c4cnn(S(=O)(=O)C5CC5)c4)n3)ncc2-c2ccc(C(=O)N3CCOCC3)cn2)CC1  EGFR L858R/C797S (Homo sapiens, UniProt P00533, C797S/L858R)    8.74
2  CN1CC(Oc2ccc(-c3cnc(Nc4ccnc(-c5cnn(S(=O)(=O)C6CC6)c5)n4)cc3N[C@H]3CC[C@@](C)(O)CC3)nc2)C1  EGFR L858R/C797S (Homo sapiens, UniProt P00533, C797S/L858R)    9.10
3  C[C@]1(O)CC[C@@H](Nc2cc(Nc3ccnc(-c4cnn(S(=O)(=O)C5CC5)c4)n3)ncc2-c2cc(NCCN3CC(F)C3)ccn2)CC1  EGFR L858R/C797S (Homo sapiens, UniProt P00533, C797S/L858R)    8.68
4  O=S(=O)(C1CC1)n1cc(-c2nccc(Nc3cc(N[C@H]4CC[C@@H](CO)CC4)c(-c4ccc(C(F)(F)CO)cn4)cn3)n2)cn1  EGFR L858R/C797S (Homo sapiens, UniProt P00533, C797S/L858R)    9.05

Would you kindly share the measured pIC50 for CC1(O)CCC(Nc2cc(Nc3ccnc(-c4cnn(S(=O)(=O)C5CC5)c4)n3)ncc2-c2cc(NC3CC(O)C3)ccn2)CC1 (stereo not drawn) ?
8.64

Fill in: pIC50 of C[C@]1(O)CC[C@@H](Nc2cc(Nc3ccnc(-c4cnn(S(=O)(=O)C5CC5)c4)n3)ncc2-c2ccc(S(=O)(=O)N3CCOCC3)cn2)CC1 is ___
8.46

Record request: pIC50 value, item O=S(=O)(C1CC1)n1cc(-c2nccc(Nc3cc(N[C@H]4CC[C@@H](CO)CC4)c(-c4ccc(CC(F)(F)F)cn4)cn3)n2)cn1
7.56

Look up pIC50 for this compound: CN(C)C[C@H]1CC[C@@H](Nc2cc(Nc3ccnc(-c4cnn(S(=O)(=O)C5CC5)c4)n3)ncc2-c2ccc(S(C)(=O)=O)cn2)CC1
8.92

Requested read-out: pIC50. Entry: CC(F)(F)c1ccc(-c2cnc(Nc3ccnc(-c4cnn(S(=O)(=O)C5CC5)c4)n3)cc2N[C@H]2CC[C@@H](C(C)(C)O)CC2)nc1
6.75

// pIC50 lookup, key: O=S(=O)(C1CC1)n1cc(-c2nccc(Nc3cc(N[C@H]4CC[C@@H](CCO)CC4)c(-c4ccc(CC(F)(F)F)cn4)cn3)n2)cn1
6.94

Entry O=S(=O)(C1CC1)n1cc(-c2nccc(Nc3cc(NC4CCC(F)(CO)CC4)c(-c4cccc(F)n4)cn3)n2)cn1 (stereo not drawn) : reported pIC50 = ?
5.81
